target: human GLP-1 receptor (human, UniProt P43220 24-463); experiment: cell-based or functional assay
Starred links: 1 amine or outer side, 2 acyl side, 3 side chain; linkers in the order of their positions; H or OH if unused. Non-standard residues stand in square brackets, D forms with d. Groups on a side chain read outwards from the residue. *: point of attachment. C18 diacid = O=C(O)CCCCCCCCCCCCCCCCC(=O)*; C16 diacid = O=C(O)CCCCCCCCCCCCCCC(=O)*; γGlu = O=C(O)[C@H](CCC(=O)[*:2])N[*:1]; εLys = N[C@@H](CCCCN[*:1])C(=O)[*:2]; AEEA = NCCOCCOCC(=O)O; Aib = CC(C)(N)C(=O)O
measurement type: Human GLP-1R potency [EC50 (pM)]
The reply should be a number in pM, with the unit left off.

In the examples that follow, each entry is paired with its recorded Human GLP-1R potency [EC50 (pM)].
What value of Human GLP-1R potency [EC50 (pM)] has been recorded for this entry: Compound 0528 (peptide) peptide: H[Aib]EGTFTSDVSK([AEEA-AEEA-γGlu-C16 diacid])YLEEQAAREFIAWLVRGRK([AEEA-AEEA-γGlu-C16 diacid])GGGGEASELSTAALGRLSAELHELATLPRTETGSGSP-NH2 3.8

What value of Human GLP-1R potency [EC50 (pM)] has been recorded for this entry: Compound 0076 (peptide) peptide: H[Aib]EGTFTSDVSSYLEEQAARK([AEEA-AEEA-γGlu-C16 diacid])FIAWLVRGK([AEEA-AEEA-γGlu-C16 diacid])GGGEASELSTAALGRLSAELHELATLPRTETGSGSP-NH2 1.7

What value of Human GLP-1R potency [EC50 (pM)] has been recorded for this entry: Compound 0472 (peptide) peptide: HAEGTFTSDVSSYLEEK([AEEA-AEEA-γGlu-C18 diacid])AAREFIEWLVRGRGEASELSTAALGRLSAELHELATLPRTETGSGSP-NH2 2.8

New cases:
What value of Human GLP-1R potency [EC50 (pM)] has been recorded for this entry: Compound 0656 (peptide) peptide: H[Aib]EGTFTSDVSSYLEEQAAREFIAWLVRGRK([εLys-εLys-γGlu-C18 diacid])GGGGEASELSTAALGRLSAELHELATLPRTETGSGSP-NH2 4.1
